tested on: Escherichia coli; assay: Antibacterial activity against Escherichia coli MTCC 442 after overnight incubation by broth microdilution method; assay type: functional
Observed property: MIC99 (µg/mL)

molecule_smiles=Cc1ccc2nc(Nn3c(-c4ccc(Cl)cc4)nnc3-c3cccnc3)sc2c1 system_tested="Escherichia coli" unit_symbol=µg/mL meas_value=500
molecule_smiles=O=[N+]([O-])c1cccc2sc(Nn3c(-c4ccc(Cl)cc4)nnc3-c3cccnc3)nc12 system_tested="Escherichia coli" unit_symbol=µg/mL meas_value=100
molecule_smiles=Clc1ccc(-c2nnc(-c3cccnc3)n2Nc2nc3ccc(Br)cc3s2)cc1 system_tested="Escherichia coli" unit_symbol=µg/mL meas_value=500
molecule_smiles=Cc1cccc2sc(Nn3c(-c4ccc(Cl)cc4)nnc3-c3cccnc3)nc12 system_tested="Escherichia coli" unit_symbol=µg/mL meas_value=500
molecule_smiles=Clc1ccc(-c2nnc(-c3cccnc3)n2Nc2nc3ccc(Cl)cc3s2)cc1 system_tested="Escherichia coli" unit_symbol=µg/mL meas_value=1000
molecule_smiles=CC1(C)S[C@@H]2[C@H](NC(=O)[C@H](N)c3ccccc3)C(=O)N2[C@H]1C(=O)O system_tested="Escherichia coli" unit_symbol=µg/mL meas_value=100
molecule_smiles=Clc1ccc(-c2nnc(-c3cccnc3)n2Nc2nc3c(Cl)cccc3s2)cc1 system_tested="Escherichia coli" unit_symbol=µg/mL meas_value=100
molecule_smiles=O=[N+]([O-])c1ccc2nc(Nn3c(-c4ccc(Cl)cc4)nnc3-c3cccnc3)sc2c1 system_tested="Escherichia coli" unit_symbol=µg/mL meas_value=250
molecule_smiles=Fc1ccc2nc(Nn3c(-c4ccc(Cl)cc4)nnc3-c3cccnc3)sc2c1 system_tested="Escherichia coli" unit_symbol=µg/mL meas_value=500

* * *

system: Escherichia coli; experiment: Antibacterial activity against Escherichia coli MTCC 442 after overnight incubation by broth microdilution method; type: functional
Observed property: MIC99 (µg/mL)

molecule_smiles=Clc1ccc(-c2nnc(-c3cccnc3)o2)cc1 meas_value=500
molecule_smiles=Clc1ccc(-c2nnc(-c3cccnc3)n2Nc2nc3cc(Cl)c(Cl)cc3s2)cc1 meas_value=500
molecule_smiles=COc1ccc2nc(Nn3c(-c4ccc(Cl)cc4)nnc3-c3cccnc3)sc2c1 meas_value=500

Reference source for all entries: ChEMBL document CHEMBL3046062
